- study_target: Recombinant ROCK1 (amino acids 1-477) (Homo sapiens)
- Construct: Recombinant ROCK1 (amino acids 1-477); by word order, ROCK1 from Carna Biosciences
- Sequence (Q13464 1-477): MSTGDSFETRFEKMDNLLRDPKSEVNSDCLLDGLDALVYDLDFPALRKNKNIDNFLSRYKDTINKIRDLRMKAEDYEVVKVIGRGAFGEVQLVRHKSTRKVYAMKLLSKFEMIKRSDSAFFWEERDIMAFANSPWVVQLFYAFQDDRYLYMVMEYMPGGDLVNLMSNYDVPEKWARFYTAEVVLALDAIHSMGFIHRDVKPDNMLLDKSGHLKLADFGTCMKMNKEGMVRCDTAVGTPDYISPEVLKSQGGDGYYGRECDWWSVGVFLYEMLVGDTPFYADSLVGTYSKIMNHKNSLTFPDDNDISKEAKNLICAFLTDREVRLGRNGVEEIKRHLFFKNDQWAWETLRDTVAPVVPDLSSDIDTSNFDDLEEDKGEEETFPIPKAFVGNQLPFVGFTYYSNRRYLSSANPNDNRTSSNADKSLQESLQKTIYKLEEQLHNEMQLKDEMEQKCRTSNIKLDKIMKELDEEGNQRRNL
- protocol_details: ROCK inhibition assay, LANCE Ultra TR-FRET kinase assay (ROCK1)
- condition: 1 μM ATP, 50 nM ULight-CREBtide substrate
pIC50: −log10 of the molar value.
readout_label: pIC50

// worked examples, pIC50 included
>>> assay_value("CNC(=O)c1cccc(Cn2ccc3cc(-c4cn[nH]c4C(F)(F)F)cnc3c2=O)c1")
"< 6.30"
>>> assay_value("Cc1nocc1-c1cc2ccn(Cc3cc(F)cc(C(=O)NCC4CCOCC4)c3)c(=O)c2cn1")
"7.00 to 7.96"
>>> assay_value("Cn1nccc1-c1ccc2c(=O)n(Cc3cccc(C(=O)NCC4CC(O)C4)c3)ccc2c1 (stereo not shown) [Compound 167]")
"7.00 to 7.96"
>>> assay_value("Cc1nocc1-c1ccc2c(=O)n(Cc3cccc(C(=O)Nc4ccc5c(c4)CCOC5)c3)ccc2c1")
"7.00 to 7.96"
>>> assay_value("Cc1n[nH]cc1-c1ccc2c(=O)n(Cc3cccc(C(=O)Nc4ccc(S(N)(=O)=O)cc4)c3)ccc2c1")
"< 6.30"

Prompt: Specify pIC50 for O=C(NCC1CCN(CC(F)(F)F)CC1)c1cc(F)cc(Cn2ccc3cc(N4CCOCC4)ccc3c2=O)c1 and stop.
Completion: 6.30 to 7.00

Prompt: Specify pIC50 for O=C(NCc1ccc(F)nc1)c1cc(F)cc(Cn2ccc3cc(-c4c[nH]nc4C(F)(F)F)ccc3c2=O)c1 and stop.
Completion: 6.30 to 7.00

---

- study_target: Recombinant ROCK1 (amino acids 1-477) (Homo sapiens)
- Construct: Recombinant ROCK1 (amino acids 1-477); by word order, ROCK1 from Carna Biosciences
- protocol_details: ROCK inhibition assay, LANCE Ultra TR-FRET kinase assay (ROCK1)
- condition: 1 μM ATP, 50 nM ULight-CREBtide substrate
pIC50: −log10 of the molar value.
Quick reference for pIC50 among some compounds

Prompt: Jot down pIC50 (Recombinant ROCK1 (amino acids 1-477) (Homo sapiens)) of CNC(=O)c1cc(F)cc(Cn2ccc3cc(-c4cn[nH]c4Cl)ccc3c2=O)c1 .
Completion: 7.00 to 7.96

Prompt: Jot down pIC50 (Recombinant ROCK1 (amino acids 1-477) (Homo sapiens)) of CNC(=O)c1cccc(C(C)n2cc(CCO)c3cc(-c4cn[nH]c4C(F)(F)F)ccc3c2=O)c1 (stereo not shown) .
Completion: 7.00 to 7.96

---

- study_target: Recombinant ROCK2 (amino acids 5-554) (Homo sapiens)
- Construct: ROCK2 (amino acids 5-554); by word order, ROCK2 from SignalChem
- Sequence (O75116 5-554): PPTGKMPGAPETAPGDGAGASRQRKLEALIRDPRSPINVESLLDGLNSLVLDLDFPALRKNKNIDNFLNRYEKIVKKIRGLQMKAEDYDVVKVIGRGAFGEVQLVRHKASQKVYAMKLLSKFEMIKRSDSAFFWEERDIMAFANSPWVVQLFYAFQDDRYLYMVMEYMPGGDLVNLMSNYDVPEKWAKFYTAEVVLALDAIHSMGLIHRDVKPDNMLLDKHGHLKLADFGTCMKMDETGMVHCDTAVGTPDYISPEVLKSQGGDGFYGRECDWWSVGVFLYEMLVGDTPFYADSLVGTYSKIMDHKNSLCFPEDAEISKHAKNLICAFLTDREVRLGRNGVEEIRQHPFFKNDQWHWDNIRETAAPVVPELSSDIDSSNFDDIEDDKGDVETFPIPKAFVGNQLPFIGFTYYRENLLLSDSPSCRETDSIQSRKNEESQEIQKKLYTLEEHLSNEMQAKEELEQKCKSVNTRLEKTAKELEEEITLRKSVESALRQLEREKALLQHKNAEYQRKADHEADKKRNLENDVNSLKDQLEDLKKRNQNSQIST
- protocol_details: ROCK inhibition assay, LANCE Ultra TR-FRET kinase assay (ROCK2)
- condition: 4 μM ATP, 50 nM ULight-CREBtide substrate
- Protocol: Kinase IC50 was determined through an in vitro assay based on LANCE Ultra TR-FRET (Time-Resolved Fluorescence Resonance Energy Transfer) homogeneous technologies method (Perkin Elmer). […] Compound activities were measured by Envision and IC50s were calculated. […] The reaction was incubated for 1 hour, and the signal was read in Envision in TR-FRET mode (excitation at 320 nm and emission at 615/665 nm). […]
Quick reference for IC50 among some compounds

>>> assay_value("COc1cccc(Cn2ccc3cc(-c4conc4C)ccc3c2=O)c1")
"< 10 nM"
>>> assay_value("CNC(=O)c1cccc(Cn2ccc3cc(-c4cc[nH]c4)ccc3c2=O)c1")
"100 to 500 nM"
>>> assay_value("[2H]C([2H])([2H])NC(=O)c1cccc(Cn2ccc3cc(-c4cn[nH]c4C(F)(F)F)ccc3c2=O)c1")
"< 10 nM"
>>> assay_value("Cc1nocc1-c1ccc2c(=O)n(Cc3cccc(C(=O)NC4CCN(CC(F)F)CC4)c3)ccc2c1")
"< 10 nM"
>>> assay_value("Nc1cc(-c2ccc3c(=O)n(Cc4cccc(C(=O)N[C@H]5CC[C@H](O)CC5)c4)ccc3c2)ccn1")
"10 to 100 nM"

Prompt: Specify IC50 for O=C(NC1CCOCC1)c1cccc(Cn2ccc3cc(-c4c[nH]nc4C(F)(F)F)ccc3c2=O)c1 and stop.
Completion: 10 to 100 nM

Prompt: Specify IC50 for CNC(=O)c1cccc(Cn2cnc3cc(-c4cn[nH]c4C(F)(F)F)ccc3c2=O)c1 and stop.
Completion: < 10 nM

Prompt: Specify IC50 for C[C@H](c1cccc(C(=O)N[C@H]2C[C@@H](O)C2)c1)n1cnc2cc(-c3ccnn3C)ccc2c1=O and stop.
Completion: < 10 nM
